Tested on: KM12
Test: NCI tumour cell line growth inhibition, 48 h
The source made the active and inactive calls. Rule as the data show it: active = GI50 up to about 1.1 µM and inactive = higher.
The entries below come with measured GI50 values attached.

In the examples that follow, each entry is paired with its recorded GI50.
| Compound | Target under test | GI50 |
| --- | --- | --- |
| O=C(N/N=C\c1ccc([N+](=O)[O-])cc1)c1ccccc1Nc1ccccc1C(=O)N/N=C/c1ccc([N+](=O)[O-])cc1 | KM12 | > 100 µM (inactive) |
| COC(=O)NC(=O)c1cn(C2OC(CO)C(O)C2O)c(=O)[nH]c1=O (centres undefined) | KM12 | > 100 µM (inactive) |
| CC(=O)O[C@H]1CC[C@@]2(C)C(=CC[C@@H]3[C@@H]2CC[C@]2(C)C(=O)/C(=C\c4ccccc4)C[C@@H]32)C1 | KM12 | > 100 µM (inactive) |
| O=C1c2ccc3ccccc3c2CCC1N1CCCCC1 (centres undefined) | KM12 | 17.7 µM (inactive) |
| COC(=O)c1cccc(OC)c1C#Cc1c(OC)cccc1OC | KM12 | 69.7 µM (inactive) |
| COc1cc(C2Oc3cc(-c4oc5cc(O)cc(O)c5c(=O)c4O)ccc3OC2CO)ccc1O (centres undefined) [DEHYDROSILYLBIN] | KM12 | 20.1 µM (inactive) |
| CC(=O)O[C@H]1CC[C@@]2(C)C(=CC[C@H]3[C@@H]4C[C@H](N5CCOCC5)[C@H](OC(C)=O)[C@@]4(C)CC[C@@H]32)C1 | KM12 | > 100 µM (inactive) |
| CCN(CC)CCC(=O)OC1C(C)=CC(C)C(=O)CC(C(C)CC2CCC(O)C(OC)C2)OC(=O)C2CCCCN2C(=O)C(=O)[C@@]2(O)OC(CCC2C)CC(OC)\C(C)=C/C=C/C=C/C(C)CC(C)C(=O)C1OC (some centres undefined) | KM12 | 7.98 µM (inactive) |

Ask: Find the recorded GI50 belonging to `COC(=O)/C=c1/c2ccccc2n2c1c1ccccc1[n+]2C` and report it.
Reply: 2.71 µM (inactive)

Ask: How about this compound: CC1C2CC(CC2=O)C1(C)C (centres undefined)
Reply: > 100 µM (inactive)

Ask: How about this compound: O=C(c1ccccc1)C1C(c2ccccc2)N1S(=O)(=O)c1ccccc1 (centres undefined)
Reply: > 100 µM (inactive)

Ask: How about this compound: CC1=CC[C@H](C)C(C)(C)C1/C=C/C(C)=C/CC[C@@]1(CO)[C@H](CCCO)/C(=C(/C)C=O)CC[C@]1(C)O (some centres undefined)
Reply: 1.61 µM (inactive)

Ask: How about this compound: COc1cccc2c1C(=O)c1c(O)c3c(c(O)c1C2=O)C[C@@](O)(C(=O)CO)CC3OC1CC(N(C)CCOCC(OC(C)=O)OC(C)=O)C(O)C(C)O1 (some centres undefined)
Reply: > 0.01 µM (active)

Ask: How about this compound: `COCC[N+](CCNC(=O)c1cccc2c(N)c3cccc(C)c3nc12)(CCOC)Cc1ccc([N+](=O)[O-])cc1`
Reply: 14.5 µM (inactive)

###

System: COLO 205
Test: NCI tumour cell line growth inhibition, 48 h
The source made the active and inactive calls. No stated cut-off is given here; in the data, active = GI50 up to about 1.1 µM and inactive = higher.
Classes to choose from: active, inactive

Ask: Kindly provide the recorded test outcome for the following compound: `O=c1n(CCCN2CCOCC2)nc2n1-c1ccc3ccccc3c1SC2`
Reply: inactive

Ask: How about this compound: `c1ccc2c(c1)CCc1c(-c3ccncc3)n[nH]c1-2`
Reply: inactive

Ask: How about this compound: COc1ccc(C(CC(=O)C(C)(C)CN2CCCCC2)SCCS(=O)(=O)O)cc1 (configuration not stated)
Reply: inactive

Ask: How about this compound: `CC(C)(C)c1cc(CCC(=O)Nc2ccc(Cl)cc2Cl)nc(N)n1`
Reply: inactive

Ask: How about this compound: `COc1cc(/N=N\c2ccc(OC)c(S(=O)(=O)O)c2)c(C)cc1/N=N\c1ccc(/C=C/c2ccc(/N=[N+](/[O-])c3ccc(/C=C/c4ccc(/N=N/c5cc(C)c(/N=N\c6ccc(OC)c(S(=O)(=O)O)c6)cc5OC)cc4S(=O)(=O)O)c(S(=O)(=O)O)c3)cc2S(=O)(=O)O)c(S(=O)(=O)O)c1`
Reply: inactive

Ask: How about this compound: CNC(=O)C(C)C1C(=O)/C(=C(O)/C=C\C(C)=C\C(C)C2OC3(C)OC(C=CC34CO4)C2C)C(=O)N1C1CCC(O)C(C)O1 (configuration not stated)
Reply: inactive

Ask: How about this compound: CCOC(=O)C1Cc2c(cc3c4c(cccc24)N(C(C)=O)C3)N(C)C1 (configuration not stated)
Reply: inactive

Ask: How about this compound: `CN(CCCNC(=O)c1nn(-c2ccc(Cl)cc2Cl)c2c1ccc1ccccc12)CCCNC(=O)c1nn(-c2ccc(Cl)cc2Cl)c2c1ccc1ccccc12`
Reply: inactive

Ask: How about this compound: `COc1ccc(S(=O)(=O)Nc2ccc(-c3csc(N4C(=O)/C(=C/c5ccccc5)N=C4c4ccccc4)n3)cc2)cc1Cl`
Reply: inactive

Ask: How about this compound: COC1OC(Cn2cc([N+](=O)[O-])nc2C)C(O)C(O)C1O (configuration not stated)
Reply: inactive

Ask: How about this compound: `Oc1c(C(O)(c2ccccc2)c2ccc3ccccc3c2O)ccc2ccccc12`
Reply: inactive

Ask: How about this compound: COC(=O)C1Cc2c(OC)ccc(OC)c2CC(C(=O)OC)C1=O (configuration not stated)
Reply: inactive

Ask: How about this compound: `Nc1ccc(-c2nc3ccccc3s2)cc1CO`
Reply: inactive

Ask: How about this compound: `O=C1C(O)=C(CCCc2ccc(Oc3ccccc3)cc2)C(=O)c2ccccc21`
Reply: inactive

Ask: How about this compound: `COc1cc(CNc2ccc(C)cc2)cc(OC)c1OC`
Reply: active

Ask: How about this compound: `O=C(Cc1ccccc1)N/N=C/c1ccccc1O`
Reply: inactive

Ask: How about this compound: O=C(O)C1=C(C(=O)Nc2ccccc2)C2C=CC1C2 (configuration not stated)
Reply: inactive
